Reported pIC50 values are given for each entry in this list.
# Test system: human ovarian cancer cells A2780
# assay_procedure: Cell anti-proliferation assay (MTT), A2780
# Assay type: cell-based
# recorded_conditions: incubated for 5 days
# From the text: Human breast cancer cells MCF-7, human ovarian cancer cells A2780, human mantle cell lymphoma cells JEKO-1. DMEM medium (Bio-Channel), DMSO (dimethyl sulfoxide), MTT (thiazolyl blue), 0.25% EDTA-Trypsin (trypsin digestive solution), 1×PBS (phosphate buffered saline, pH 7.2), 96-well plate (Corning), fetal bovine serum (FBS), 10,000 U/mL penicillin-G/streptomycin, high-speed refrigerated centrifuge (EPPENDORF 5810R), and microplate reader (Tecan Spark). […]
pIC50: −log10 of the molar value.

- compound: "C[C@H]1C[C@H](C)n2c(nc3c(F)cc(-c4nc(N[C@@H]5CCOC[C@H]5O)ncc4Cl)cc32)N1C [TB-153]"
  result: "≥ 6.30"
- compound: "CN1CCCn2c1nc1c(F)cc(-c3nc(NC4CCN(S(C)(=O)=O)CC4)ncc3Cl)cc12 [TB-43]"
  result: "≥ 6.30"
- compound: "[2H]C([2H])([2H])N1CC[C@H](C)n2c1nc1c(F)cc(-c3nc(N[C@@H]4CCOC[C@H]4O)ncc3Cl)cc12 [TA-28]"
  result: "≥ 6.30"

Now consider the entry below.
**Query** Name the recorded pIC50 of the item C[C@H]1CCN([C@H]2C[C@H](O)C2)c2nc3c(F)cc(-c4nc(N[C@@H]5CCOC[C@H]5O)ncc4Cl)cc3n21 [TA-31] in your answer.
**Result** 5.70 to 6.30
